# measurement.target: hEP4/Gqs5 (Homo sapiens)
# Construct: expressed in transfected cells; host or cells: HEK-293(EBNA)
# Sequence (P35408 whole entry): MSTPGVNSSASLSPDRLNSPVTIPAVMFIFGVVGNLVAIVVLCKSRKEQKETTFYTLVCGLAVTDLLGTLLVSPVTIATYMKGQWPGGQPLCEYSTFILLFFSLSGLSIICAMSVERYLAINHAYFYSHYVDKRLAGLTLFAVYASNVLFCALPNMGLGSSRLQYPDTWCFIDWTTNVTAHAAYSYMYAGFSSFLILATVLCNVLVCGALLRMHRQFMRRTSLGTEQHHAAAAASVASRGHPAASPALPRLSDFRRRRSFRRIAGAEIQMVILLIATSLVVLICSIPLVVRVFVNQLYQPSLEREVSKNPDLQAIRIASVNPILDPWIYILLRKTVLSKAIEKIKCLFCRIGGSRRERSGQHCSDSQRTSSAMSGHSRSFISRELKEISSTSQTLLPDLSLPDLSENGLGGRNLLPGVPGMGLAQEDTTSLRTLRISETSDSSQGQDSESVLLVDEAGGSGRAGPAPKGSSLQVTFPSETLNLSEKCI
# measurement.protocol: FLIPR calcium signal, hEP4
# Assay type: cell-based
# assay.setup: Table 3, third part; read-out: Ca2+ Signal-EC50 (nM) EP4
attribute.measured: EC50 (nM)
Give bare numbers, in nM.

Given item CCCCCC(O)c1ccc([C@@H]2[C@@H](C/C=C\CCCC(=O)O)[C@H](Cl)C[C@@H]2Cl)cc1 (stereo partly shown) , the value recorded as its EC50 is 10000

* * *

# measurement.target: hDP/Gqs5 (Homo sapiens)
# Construct: expressed in transfected cells; host or cells: HEK-293(EBNA)
# Sequence (Q13258 whole entry): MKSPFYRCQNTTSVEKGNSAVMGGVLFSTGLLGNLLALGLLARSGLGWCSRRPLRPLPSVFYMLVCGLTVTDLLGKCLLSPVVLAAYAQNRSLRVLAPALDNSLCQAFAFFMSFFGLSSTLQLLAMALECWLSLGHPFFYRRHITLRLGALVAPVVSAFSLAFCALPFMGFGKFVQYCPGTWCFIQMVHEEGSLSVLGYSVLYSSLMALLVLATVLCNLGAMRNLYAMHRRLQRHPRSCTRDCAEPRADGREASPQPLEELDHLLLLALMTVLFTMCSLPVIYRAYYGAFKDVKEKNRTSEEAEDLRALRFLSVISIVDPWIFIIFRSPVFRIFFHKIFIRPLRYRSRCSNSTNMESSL
# measurement.protocol: FLIPR calcium signal, hDP
# Type: cell-based
# assay.setup: read-out: Other Receptors EC50 hDP
attribute.measured: pEC50
Answers are plain numbers, as −log10 of the molar value.

# count of solved cases: 4
> print(dat)
                                   compound  attribute.measured  value.observed
1  CCCCCCC(O)c1ccc(N2C(=O)CC[C@@H]2CCCc2ccc(C(=O)O)s2)cc1 (some centres unmarked) [drawing 154]               pEC50            6.98
2  CCCCCCC(O)c1ccc(N2C(=O)CC[C@@H]2COCc2ccc(C(=O)O)s2)cc1 (some centres unmarked) [drawing 169]               pEC50            5.24
3  CCCCCCC(O)c1ccc(N2C(=O)CC[C@@H]2COCc2ccc(C(=O)O)s2)cc1 (single isomer, unassigned) [drawing 152]               pEC50            5.17
4  CCCCCCC(O)c1ccc(N2C(=O)CC[C@@H]2CCCc2ccc(C(=O)O)s2)cc1 (single isomer, unassigned) [drawing 156]               pEC50            6.97

Alright, here's another compound for you.
Given item CCCCCC(O)c1ccc(N2C(=O)CC[C@@H]2COCc2ccc(C(=O)O)s2)cc1 (some centres unmarked) , the value recorded as its pEC50 is 5.49
